# Test system: SNB-75 CNS
# Assay protocol: NCI-60 one-dose screen, 48 h (100 = growth as untreated, 0 = no growth, -100 = all killed)
# Test settings: 10 µM unless noted
This is part of a sample that, as a whole, favours compounds with a hit. Of some 83,000 tested, about 20% had one in any assay.
Use True when the recorded growth is no lower than 90%; use False when it is lower.

Compound	Group
CCN(CC)S(=O)(=O)c1cccc([N+](=O)[O-])c1	False
N#Cc1c(Nc2ccccc2)nn2cc(-c3nc4ccccc4s3)c(N)nc12	False
COc1cccc2c1C(=O)c1c(O)c3c(c(O)c1C2=O)C[C@@](O)(C(=O)CO)C[C@@H]3O[C@H]1C[C@H](N)[C@@H](O)[C@H](C)O1	False
CCCCCOc1ccc(/C=N/Nc2cc(C)nc3ccc(Br)cc23)cc1	False
O=C(N/N=C/c1ccc(F)cc1)c1ccccc1Nc1cccc(C(F)(F)F)c1	True
Cc1nc2sc(C(=O)Nc3cccc(Br)c3)c(N)c2cc1C(=O)c1ccc(C(F)(F)F)cc1	False
CC[C@@]12C=CCN3CC[C@]4(c5cc(NC(=O)COc6cc(OCC(=O)Nc7cc8c(cc7OC)N(C)[C@H]7[C@@](O)(C(=O)OC)[C@H](OC(C)=O)[C@]9(CC)C=CCN%10CC[C@]87[C@@H]%109)cc7oc(-c8ccccc8)cc(=O)c67)c(OC)cc5N(C)[C@@H]4[C@](O)(C(=O)OC)[C@H]1OC(C)=O)[C@H]32	False
Cn1c(=O)c2[nH]c(CCCc3nc4c([nH]3)c(=O)n(C)c(=O)n4C)nc2n(C)c1=O	True
CC(C)(O)C1CCCN1C(=O)c1ccccc1I (stereo unspecified)	True
[2H]C1([2H])NC([2H])([2H])C([2H])([2H])N(c2ccc(Nc3ncc4cc(C(=O)N(C)C)n(C5CCCC5)c4n3)nc2)C1([2H])[2H]	False
CCCCCCC/C=C/[C@H]1O[C@]2(O)C(=O)C=C3C[C@@H](O[C@@H]4O[C@H](CO)[C@@H](O)C(O)[C@@H]4O)C[C@@H]3[C@H]2C=C1C (stereo partly specified)	False
CC(C)(C)CC(C)(C)Nc1c(-c2ccc(C(F)(F)F)cc2)nc2cnccn12	False
O=C(N/N=C/c1ccncc1)c1ccccc1Nc1cccc(C(F)(F)F)c1	False
C=C(C)[C@@H]1CC[C@]2(C(=O)NCC(=O)OC)CC[C@]3(C)[C@H](CC[C@@H]4[C@@]5(C)Cc6c([nH]c7ccccc67)C(C)(C)[C@@H]5CC[C@]43C)[C@@H]12	True
O=C(OC(OC(=O)c1cc(Cl)cc(Cl)c1)c1cccc2ccccc12)c1ccccc1 (stereo unspecified)	True
C/C(=C(/c1ccccc1)c1ccc(OCC(O)CNCCN2CCOCC2)cc1)c1ccccc1 (stereo unspecified)	False

###

# System: SK-MEL-28 melanoma
# Assay protocol: NCI-60 one-dose screen, 48 h
# Test settings: 10 µM unless noted
This is part of a sample that, as a whole, favours compounds with a hit. Of some 83,000 tested, about 20% had one in any assay. The source made the active and inactive calls. How the source made its calls: active means growth percent below 10; inactive means the rest.
Outcomes: active, inactive

> print(dat)
                                    compound     group
 1  Cc1ccc(-c2csc(/N=C3\C(=O)Nc4ccccc43)n2)cc1  inactive
 2  O=C1NC(=O)C(=Cc2cn(Cc3ccccn3)c3ccccc23)C(=O)N1  inactive
 3  C#CCn1cc(C=C2C(=O)NC(=S)NC2=O)c2cc(Cl)ccc21    active
 4  COc1ccc(-c2nc(N=Nc3c(O)[nH]c4ccccc34)nc(N3CCOCC3)c2C#N)cc1  inactive
 5  O=C1Nc2c(ccc(Cl)c2Cl)/C1=C/c1ccc([N+](=O)[O-])cc1  inactive
 6  C=CCn1c(SCC(=O)Nc2ccc(C(=O)/C=C/c3cc(OC)c(OC)c(OC)c3)cc2)nnc1-c1cc(OC)c(OC)c(OC)c1  inactive
 7  COc1ccc(/C=C/C(=O)c2ccc(Nc3ncnc4ccccc34)cc2)cc1OC  inactive
 8  Cc1ccc(C(=O)Nc2ccccc2C(=O)N/N=C(\c2ccccc2)c2ccccn2)cc1  inactive
 9  CC(=O)N1N=C(c2cccc(Nc3ccncc3)c2)CC1c1ccccc1 (stereo not given)  inactive
10  COc1ccc(Cl)cc1NC(=O)c1c(NC(=O)C(F)(F)C(F)(F)F)sc2c1CCCCC2  inactive

###

# Test system: MOLT-4 leukemia
# Assay protocol: NCI-60 one-dose screen, 48 h (100 = growth as untreated, 0 = no growth, -100 = all killed)
# Test settings: 10 µM unless noted
Compounds without any hit were thinned out: in the full panel of roughly 83,000, 20% have a hit.
Readout name: growth (%)

> print(dat)
                                    molecule  readout.name  unit.name  meas.value
 1  c1ccc(-c2nn(-c3ccccc3)[n+](-c3ccccc3-c3ccccc3)n2)cc1        growth          %        22.9
 2  C=CCn1c(SCC(=O)Nc2ccc(C(=O)/C=C/c3cc(OC)c(OC)c(OC)c3)cc2)nnc1-c1cc(OC)c(OC)c(OC)c1        growth          %        12.3
 3  O=C(Nc1ccc2cc3ccc(NC(=O)NC4CCCCC4)cc3nc2c1)NC1CCCCC1        growth          %        9.49
 4  COc1ccccc1/C=C1\Oc2cc(OCCCN3CCCC3)ccc2C1=O        growth          %        93.3
 5  Cc1[nH]n(C(=O)c2ccncc2)c(=O)c1N=Nc1ccc(F)c(Cl)c1        growth          %        11.6
 6  COc1cc2nc(-c3ccc(C(F)(F)F)cc3)cc(OCCN3CCC(O)CC3)c2cc1OC        growth          %          77
 7  O=C(Nc1nc2ccc(C(=O)N3CCN(c4ccc(Cl)c(Cl)c4)CC3)cc2s1)c1ccc(NCCc2ccccc2)c([N+](=O)[O-])c1        growth          %        95.7
 8  CC(=O)[C@@H]1CC[C@]2(C(N)=O)CC[C@]3(C)[C@H](CC[C@@H]4[C@@]5(C)CCC(=O)C(C)(C)[C@@H]5CC[C@]43C)[C@@H]12        growth          %        92.5
 9  CC1CCN(C(=O)OCc2nc3nc(Cl)nc(N4CCOCC4)c3[nH]2)CC1        growth          %      0.0264
10        CC(C)Sc1nc(NN)c(C#N)c(-c2ccccc2)n1        growth          %        97.4
11  Nc1ccccc1NC(=O)c1ccc(CN2CCC/C(=C\c3cccc(Cl)c3)C2=O)cc1        growth          %        1.63
12  O=C(Cc1ccc(/C=C/C(=O)c2ncc[nH]2)cc1)Nc1ccc(C(F)(F)F)cc1        growth          %        6.36
13  C[C@H]1[C@H](C)CC[C@]2(CO)CC[C@]3(C)C(=CC[C@@H]4[C@@]5(C)CCCNC(C)(C)[C@@H]5CC[C@]43C)[C@H]12        growth          %       -45.6
14  CS(=O)(=O)Nc1cc(-c2ccc3ncnc(Nc4ccc5[nH]ncc5c4)c3c2)cnc1Cl        growth          %        75.3
15  CCN(CC)CCCC(Nc1c2ccc(Cl)cc2nc2ccc(OC)cc12)c1ccc(Cl)cc1 (centres undefined)        growth          %       -20.9
16  Cc1c(C(=O)NO)sc2ncnc(Nc3ccc(NC(=S)Nc4ccccc4)cc3)c12        growth          %         111
17  COC(=O)C1NC(=S)N(c2ccc(Cl)cc2)C1/C=C/c1ccccc1 (centres undefined)        growth          %         103
18  Cc1cccc(C)c1-c1cc(Cc2ccc(Cl)cc2)c(=O)[nH]n1        growth          %        74.3
19  CCNC(=O)c1[nH]cc(-c2ccc(OC)cc2)c1-c1cc(OC)cc(OC)c1        growth          %        94.5

###

Listing of recorded growth by entry.
# System: MDA-MB-435 melanoma
# Assay protocol: NCI-60 one-dose screen, 48 h (100 = growth as untreated, 0 = no growth, -100 = all killed)
# Test settings: 10 µM unless noted
About 83,000 compounds went through this panel and 20% of them were active in at least one assay; those are over-represented in the sample as a whole.
Readout name: growth (%)

Molecule	Readout name	Meas value
COc1ccc(Cn2nc(-c3cc(OC)c(OC)c(OC)c3)c3c2CCc2cnoc2-3)cc1OC	growth	-7.19
CN1CCN(c2cnc(C(=O)Nc3cc(F)cc4cccnc34)cn2)CC1	growth	74.5
Fc1ccc2nc3c(cc2c1)CSc1nnc(-c2ccc[nH]c2=S)n1N3	growth	103
Cn1c(COC(=O)NCCn2ccnc2)nc2c(N3CCOCC3)nc(-c3ccccc3)nc21	growth	-91.2
O=C(Cc1ccc(/C=C/C(=O)c2ncc[nH]2)cc1)Nc1ccc(C(F)(F)F)cc1	growth	-1.95
CCCCCCC/C=C/[C@H]1O[C@]2(O)C(=O)C=C3C[C@@H](O[C@@H]4O[C@H](CO)[C@@H](O)C(O)[C@@H]4O)C[C@@H]3[C@H]2C=C1C (stereo partly drawn)	growth	-19.9
COc1ccccc1N1CCN(C(=O)c2ccc3nc(NC(=O)c4ccc(NCCc5ccccc5)c([N+](=O)[O-])c4)sc3c2)CC1	growth	89.4
Cc1ccc(C2CC(c3cccc(Nc4ccncc4)c3)=NN2c2ccccc2)cc1 (stereo not drawn)	growth	-89.5
CCCCCCCCN1C(=O)/C(=c2\sc3n(c2=O)C2C(NN=3)N(CC)C(=O)N2CC)c2ccccc21 (stereo not drawn)	growth	57.3
CN1CCN(CC#CCNC(=O)[C@]23CCC(C)(C)C[C@H]2C2=CC[C@@H]4[C@@]5(C)Cc6c([nH]c7ccccc67)C(C)(C)[C@@H]5CC[C@@]4(C)[C@]2(C)CC3)CC1	growth	47.2
O=C(c1ccccc1)N1N=C(c2ccc(-n3ccc(C(F)(F)F)n3)cc2)CC1c1ccc[nH]1 (stereo not drawn)	growth	96
CC(O)/C=C/C=C/C(O)CC/C=C/C(=O)NCC(C)(C)O (stereo not drawn)	growth	110
O=C(/C=C/c1ccc[nH]1)c1ccc(-n2ccc(C(F)(F)F)n2)cc1	growth	99.5
O=C(Nc1ccc2ncnc(Nc3ccc(Oc4cccc(F)c4)c(Cl)c3)c2c1)c1ccc(CN2CCOCC2)cc1	growth	22
c1ccc(C2CC(c3cccc(Nc4ccncc4)c3)=NN2c2ccccc2)cc1 (stereo not drawn)	growth	15.3
Cc1cccc(Oc2ccc(Nc3ncnc4ccc(NC(=O)CN(C)C)cc34)cc2Cl)c1	growth	34.5
COc1ccc(-c2nc(SC(C)C)nc(NNC(N)=O)c2C#N)cc1	growth	3.51
CC(C)Cc1ccc(C(C)C(=O)NCc2c[nH]c3ccc(Cl)cc23)cc1 (stereo not drawn)	growth	66.6
